Every entry's value here was drawn from ChEMBL document CHEMBL1201862.

I'd be grateful if you could share measured GI50 for these entries.
- Test system: SF-268
- test: NCI tumour cell line growth inhibition, 48 h
The source made the active and inactive calls. Cut-off read from the data, not from the text of the source: active = GI50 up to about 1.1 µM and inactive = higher.

Reference set, count: 7
molecule | measured.target | recorded.result
O=C(O)CCCCCNC(=O)CCC(CN(CC(=O)OCc1ccccc1)CC(=O)OCc1ccccc1)N(CC(=O)OCc1ccccc1)CC(=O)OCc1ccccc1 (stereo not drawn) | SF-268 | 18.7 µM (inactive)
CC(=O)CCC[C@H](C)[C@@H](O)[C@@H]1O[C@H]([C@@]2(C)CCC(=O)O2)C[C@H]1C(=O)O | SF-268 | > 100 µM (inactive)
CCNC(=O)Cc1nc2c(N)ncnc2n1C1OC(CO)C(O)C1O (stereo not drawn) | SF-268 | > 100 µM (inactive)
ClCCCCCc1c2nc(c(CCCCCCl)c3ccc([nH]3)c(CCCCCCl)c3nc(c(CCCCCCl)c4ccc1[nH]4)C=C3)C=C2 | SF-268 | > 100 µM (inactive)
CC(=O)OCC1OC(n2c(C)c(C)c(C)c(C#N)c2=S)C(OC(C)=O)C(OC(C)=O)C1OC(C)=O (stereo not drawn) | SF-268 | 95.5 µM (inactive)
Cc1ccc(N2C(=O)C(=O)N(/N=C3\C(=O)Nc4ccccc43)C2=S)cc1 | SF-268 | 58.5 µM (inactive)
CCc1nc(N)nc(N)c1-c1ccc([N+](C)(C)C)cc1 | SF-268 | > 100 µM (inactive)

Now look at this one.
In: // lookup GI50 for C/C=C(/C)C(=O)O[C@@H]1c2c(C)coc2C[C@H]2CC[C@H](O)[C@H](C)[C@]21C
Out: 70.8 µM (inactive)

----------
I'd be grateful if you could share measured GI50 for these entries.
- Test system: NCI/ADR-RES
- test: NCI tumour cell line growth inhibition, 48 h
The source made the active and inactive calls. Rule as the data show it: active = GI50 up to about 1.1 µM and inactive = higher.

Reference set, count: 3
compound | recorded.result
NC1OC(COC(=O)c2ccccc2)C(O)C(OC(=O)c2ccccc2)C1OC(=O)c1ccccc1 (stereo unspecified) | 33.3 µM (inactive)
Cc1ccc(S(=O)(=O)NC(=O)NS(=O)(=O)O)cc1 | > 100 µM (inactive)
CC1(C)N=C(/C(Cl)=[N+](/[O-])C(=O)c2ccc(F)cc2)C(C)(C)N1O | 36.6 µM (inactive)

Give GI50 for each listed item.
1. O=C(CCc1cc(O)cc(O)c1)NCCc1cc(O)cc(O)c1
2. CCc1nnc(-n2c(C)nc3cc(Cl)ccc3c2=O)s1
3. COc1cc(Cn2c3c(c4cc(O)ccc42)C(=O)c2ccccc2C3=O)cc(OC)c1
4. CCC1C2Cc3ccc(O)cc3C1(CC)CCN2C (stereo unspecified)
5. N=C(N)N/N=C(\c1ccc(Cl)cc1)C1CC1
6. Nc1cc2c(cc1[N+](=O)[O-])[nH]c1c(-c3ccccc3)nccc12
7. O=C(O)C(CCc1ccccn1)c1ccccc1 (stereo unspecified)
8. O=C1c2ccccc2-c2c1c1ccccc1c(=O)n2CCO

Out:
1: > 100 µM (inactive); 2: 39.6 µM (inactive); 3: 6 µM (inactive); 4: > 100 µM (inactive); 5: 25.4 µM (inactive); 6: 14.1 µM (inactive); 7: > 100 µM (inactive); 8: 14.6 µM (inactive)

----------
HCT-15 GI50 data
Give bare numbers, in µM.

molecule | reported.endpoint | recorded.result
c1ccc2c(c1)OCCOCCOc1ccccc1OCCO2 | GI50 | 43.9
O=C1C(c2c(O)[nH]c3ccccc23)=Nc2ccc(Br)cc21 | GI50 | 76.2
O=C1Cc2cc3ccccc3nc2-c2ccccc2N1 | GI50 | 96.6
Cc1ccc(/C=C2\Cc3cc(C)c(C)cc3C2=O)c(C(=O)O)c1 | GI50 | 27.5
Cc1cc(O)nc(NN2C(Cl)C(=O)C2c2cccc(O)c2)n1 (stereo not given) | GI50 | 5.74

Give GI50 for each listed item.
1. O=[N+]([O-])c1ncc(N(CCO)CCO)s1
2. CC(=O)NC1COC(COC(=O)CCCCCCCCCCNC(=O)c2ccc([N+](=O)[O-])c3c(=O)c4ccccc4[nH]c23)C(O)C1OC(C)C(=O)NC(C(=O)NC(CCC(N)=O)C(=O)OCc1ccccc1)C(C)C (stereo not given)
3. O=C1C(Cl)=C(N2CCOCC2)C(=O)c2c(O)ccc(O)c21
4. N#Cc1cc2c(cc1Cl)Sc1nnc(Nc3ccccc3)n1S2(=O)=O
5. CC(=O)OC(CCC1(C)OC1COc1ccc(CCNC(=O)C=C(C)C)cc1)C(C)(C)OC(C)=O (stereo not given)
6. CC(C)=CCC[C@@H](C)C1=C(O)C(=O)C(C)=C(Nc2ccccc2F)C1=O
7. C=CCN1C[C@H](C)N([C@H](c2ccc(C(=O)NC(CC)CC)cc2)c2cccc(OC)c2)C[C@H]1C

Out:
1. 33.3
2. 11.2
3. 0.155
4. 2.08
5. 24.9
6. 5.2
7. 29.4

----------
- Tested on: UACC-257
- test: NCI tumour cell line growth inhibition, 48 h
The source made the active and inactive calls. No stated cut-off is given here; in the data, active = GI50 up to about 1.1 µM and inactive = higher.
Just give me one of these, please: Yes for active, No for inactive

compound | classification
CCOC(=O)Nc1cc2c(c(N)n1)N=C(c1ccc(Cl)cc1Cl)CN2 | No

In: For COc1nc(NC2OCC(OC(C)=O)C(OC(C)=O)C2OC(C)=O)c(-c2csc(N)n2)c(=O)n1C (centres undefined) , what call appears in the results of this test?
Out: No

----------
HCT-15 log10 GI50 data
Values reflect log10 of reported GI50 (µM).

Give log10 GI50 for each listed item.
1. COc1cc2c(c(OC)c1OC)-c1ccc(SC)c(=O)cc1C(CC(=O)Oc1ccc(F)cc1)C2 (stereo unspecified)
2. Oc1ccc(/N=C/c2ccc(/C=N/c3ccc(O)cc3)cc2)cc1
3. O=C(CCN1CC2CCC(CC2)C1)c1cccs1
4. CN(C)CCNC(=O)c1cccc2c1Oc1cccc([N+](=O)[O-])c1O2
5. O=NN(CCCl)C(=O)NC1CCC(CC2CCC(NC(=O)N(CCCl)N=O)CC2)CC1 (stereo unspecified)
6. C/C=C(/C)C(=O)O[C@@H]1c2c(C)coc2C[C@H]2CC[C@H](O)[C@H](C)[C@]21C
7. COc1cc2cc(C(=O)Nc3cc4n(n3)-c3ccccc3C4)[nH]c2c(OC)c1OC
8. COC(=O)[C@@]12C(=O)C=CC(=O)C1C1C(=CC2C)OC2OC3(CCCCC3)OC21 (stereo partly specified)

Out:
[-0.59, 1.18, 1.31, 1.53, 1.60, 1.89, 0.40, 1.12]

Give log10 GI50 for each listed item.
1. C=CCC1(O)CC(n2cc(C)c(=O)[nH]c2=O)OC1CO[Si](C)(C)C(C)(C)C (stereo unspecified)
2. CC(=O)Nc1c2sscc-2n(C)c1=O
3. CC(C)=CCC/C(C)=C/Cc1c(O)ccc2c1[nH]c1cc(O)c(C)cc12
4. CC(=O)OC1C(C)OC(OC(=O)C2CCC3C(C2)OC2(CC(OC(=O)/C=C/c4ccccc4)C(C)CO2)C32CO2)C(OC2OC(C)C(O)C(OC(C)=O)C2O)C1O (stereo unspecified)
5. O=C1CC(c2cccc(Br)c2)n2cccc21 (stereo unspecified)

Out:
[1.65, 0.12, 0.99, -0.50, 1.97]

Give log10 GI50 for each listed item.
1. CSC(SC)=C1CC(=O)Nc2ccccc2C1=O
2. C=C(C)C(=O)O[C@@H]1C/C(C)=C\[C@H](OC(C)=O)C[C@](C)(O)/C=C2/OC(=O)C(COC(C)=O)=C21
3. O=C1CSC(c2cccc(Oc3ccccc3)c2)N1c1ccc(Cl)cc1 (stereo unspecified)
4. Cc1nc2sccn2c1/C=C1/C(=O)Nc2cccc(Cl)c21
5. CCOC(=O)C(Br)(C(N)=O)C1(O)OC(c2ccccc2)=C(Br)C1=O (stereo unspecified)
6. O=C1/C(=N/CCc2cc(Br)c(O)c(Br)c2)C=C(O)c2cccnc21

Out:
1. 1.56
2. -0.67
3. 1.42
4. 1.67
5. 1.22
6. 0.37

In: Which measured log10 GI50 belongs to CC(=O)c1c2c(cc3c1CC1(C3)Cc3cc4c(c(C(C)=O)c3C1)CCCC4)CCCC2 , tested on HCT-15?
Out: 1.71

----------
- Tested on: UO-31
- test: NCI tumour cell line growth inhibition, 48 h
Activity calls are given as the source filed them. Rule as the data show it: active = GI50 up to about 1.1 µM and inactive = higher.
Just give me one of these, please: Yes (active), No (inactive)

compound | classification
[N-]=[N+]=Nc1ccc(CNc2cc(=O)[nH]c(=O)[nH]2)cc1 | No
OCCNC1=Nc2ccc(Cl)cc2C(=S)N2CSC[C@@H]12 | No
CN(C)C(=O)c1nnsc1NN=O | No

In: For COc1ccc2c(c1)CCc1c(-c3noc4c3CCc3cc(OC)ccc3-4)noc1-2 , what call appears in the results of this test?
Out: No

In: Field entry: CCN(CC)C1CC(O[C@H]2C[C@](O)(C(=O)CO)Cc3c(O)c4c(c(O)c32)C(=O)c2c(OC)cccc2C4=O)OC(C)C1O (stereo partly specified)
Out: Yes

In: Field entry: COc1cc(Cn2c3c(c4cc(O)ccc42)C(=O)c2ccccc2C3=O)cc(OC)c1
Out: No

In: Field entry: Cc1c(C(=O)/C=C/c2ccccc2O)c(=O)n(-c2ccccc2)n1C
Out: No

In: Field entry: Nc1cc2c(cc1[N+](=O)[O-])[nH]c1c(-c3ccccc3)nccc12
Out: No

In: Field entry: OCCCCCNc1c2ccccc2nc2ccccc12
Out: No

In: Field entry: Cc1ncc(CCl)c2c1OC(C)(C)OC2
Out: No

In: Field entry: O=C(CSc1nc(O)nc2[nH]cnc12)Nc1ccccc1
Out: No
